B1: Far upstream element-binding protein 1, residues 98 to 169; numbered along this chain, Q96AE4 (parent)
chain: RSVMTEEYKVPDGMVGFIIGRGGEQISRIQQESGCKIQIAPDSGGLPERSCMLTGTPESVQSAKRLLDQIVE

Variants of: B1
Assay Info: abundance fitness (aPCA) (normalised: wild type 0, dead -1); higher = more abundant; growth selection in yeast, the domain comes from the species named
Condition Info: Homo sapiens
Recorded Metric: abundance fitness

S62Y    -0.066
G34E    -0.06
Q25R    -0.016
A63P    -0.805
G16Y    -0.118
E6P    -0.625
Q61I    -0.029
I19E    0.018
R49K    -0.079
V10R    -0.491
C35L    -0.554
G23R    -0.044
T56Q    -0.042
C35Y    -1.09
I29S    -0.682
F17E    0.084
G34I    -0.316
M52S    0.001
Q31M    -0.061
Y8P    -0.798
G20K    -0.14
M4A    -0.07

These measurements were taken from the Human Domainome abundance scans (Beltran et al. 2025).
